- assay explanation: AUC (0 to 8 hrs) in po dosed rat
- Assay type: ADME, organism-based
- Parameters: time < 8 hr, route oral
- cond: plasma
Recorded AUC(0-t) at 8 h values for a group of molecules are listed next.
# number then unit; no other words

COC(=O)N[C@H](C(=O)N1C[C@@H](C)C[C@H]1c1nc2cc(-c3cc4sc(-c5ccc6nc([C@@H]7C[C@H](C)CN7C(=O)[C@@H](NC(=O)OC)C(C)C)oc6c5)cc4s3)ccc2[nH]1)C(C)C ... 376 ng·h/mL
COC(=O)N[C@H](C(=O)N1C[C@@H](C)C[C@H]1c1cc2ccc(-c3cc4sc(-c5ccc6[nH]c([C@@H]7C[C@H](C)CN7C(=O)[C@@H](NC(=O)OC)C(C)C)nc6c5)cc4s3)cc2[nH]1)C(C)C ... 659 ng·h/mL

Let's switch to this molecule now.
Item `COC(=O)N[C@H](C(=O)N1C[C@@H](C)C[C@H]1c1ncc(-c2ccc(-c3cc4sc(-c5ccc6[nH]c([C@@H]7C[C@H](C)CN7C(=O)[C@@H](NC(=O)OC)C(C)C)nc6c5)cc4s3)cc2)[nH]1)C(C)C` has what recorded AUC(0-t) at 8 h?
281 ng·h/mL

* * *

- assay explanation: Oral bioavailability in rat
- Type: ADME, organism-based
- cond: in vivo
assay metric: bioavailability (%)
Value expressed in %; do not type the unit.

Here is how some compounds turned out for bioavailability.
COC(=O)N[C@H](C(=O)N1C[C@@H](C)C[C@H]1c1cc2ccc(-c3cc4sc(-c5ccc6[nH]c([C@@H]7C[C@H](C)CN7C(=O)[C@@H](NC(=O)OC)C(C)C)nc6c5)cc4s3)cc2[nH]1)C(C)C ... 8.4
COC(=O)N[C@H](C(=O)N1C[C@@H](C)C[C@H]1c1ncc(-c2ccc(-c3cc4sc(-c5ccc6[nH]c([C@@H]7C[C@H](C)CN7C(=O)[C@@H](NC(=O)OC)C(C)C)nc6c5)cc4s3)cc2)[nH]1)C(C)C ... 8.4

Request the reported bioavailability associated with `COC(=O)N[C@H](C(=O)N1C[C@@H](C)C[C@H]1c1nc2cc(-c3cc4sc(-c5ccc6nc([C@@H]7C[C@H](C)CN7C(=O)[C@@H](NC(=O)OC)C(C)C)oc6c5)cc4s3)ccc2[nH]1)C(C)C`
7.3

* * *

- assay explanation: Cmax in po dosed rat
- Type: ADME, organism-based
- Parameters: route oral
- cond: in vivo
Reported Cmax values are given for each entry in this list.
Write the number in ng/mL without appending the unit.

Some solved entries appear below for comparison.
COC(=O)N[C@H](C(=O)N1C[C@@H](C)C[C@H]1c1cc2ccc(-c3cc4sc(-c5ccc6[nH]c([C@@H]7C[C@H](C)CN7C(=O)[C@@H](NC(=O)OC)C(C)C)nc6c5)cc4s3)cc2[nH]1)C(C)C ... 0.02
COC(=O)N[C@H](C(=O)N1C[C@@H](C)C[C@H]1c1nc2cc(-c3cc4sc(-c5ccc6nc([C@@H]7C[C@H](C)CN7C(=O)[C@@H](NC(=O)OC)C(C)C)oc6c5)cc4s3)ccc2[nH]1)C(C)C ... 0.01

Please look at the following molecule next.
Please give the measured Cmax for this molecule: `COC(=O)N[C@H](C(=O)N1C[C@@H](C)C[C@H]1c1ncc(-c2ccc(-c3cc4sc(-c5ccc6[nH]c([C@@H]7C[C@H](C)CN7C(=O)[C@@H](NC(=O)OC)C(C)C)nc6c5)cc4s3)cc2)[nH]1)C(C)C`
0.01

Data provenance: ChEMBL document CHEMBL3393019
